Below: a set of entries, each annotated with reported EC50.
- systemName: human LH receptor (Homo sapiens)
- Construct: cotransfected with CRE-luciferase reporter
- Sequence (P22888 27-699): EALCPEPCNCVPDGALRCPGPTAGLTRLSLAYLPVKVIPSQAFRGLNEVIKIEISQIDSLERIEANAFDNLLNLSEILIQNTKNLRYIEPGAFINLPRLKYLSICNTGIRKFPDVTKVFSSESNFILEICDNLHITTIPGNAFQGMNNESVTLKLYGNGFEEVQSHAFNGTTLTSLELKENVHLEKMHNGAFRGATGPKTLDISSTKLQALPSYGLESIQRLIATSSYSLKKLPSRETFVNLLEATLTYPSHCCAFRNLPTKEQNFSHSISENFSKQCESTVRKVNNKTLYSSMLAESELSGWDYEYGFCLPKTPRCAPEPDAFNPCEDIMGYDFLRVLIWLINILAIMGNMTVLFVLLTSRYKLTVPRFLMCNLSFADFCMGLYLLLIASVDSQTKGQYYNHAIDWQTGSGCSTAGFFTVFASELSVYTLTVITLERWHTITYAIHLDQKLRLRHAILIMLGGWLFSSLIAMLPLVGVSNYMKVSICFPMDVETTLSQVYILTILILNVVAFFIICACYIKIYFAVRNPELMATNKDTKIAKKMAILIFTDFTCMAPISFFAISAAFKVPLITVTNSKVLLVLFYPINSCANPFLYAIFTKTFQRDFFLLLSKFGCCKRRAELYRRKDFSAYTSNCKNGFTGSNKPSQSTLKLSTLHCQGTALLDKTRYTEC
- measurementProtocol: CHO-LH in vitro bioactivity (CRE-luciferase reporter)
- conditionDescription: CHO cells stably transfected with human LH receptor
endpointName: EC50 (nM)

>  <compound>
COC(=O)[C@H](NCC(=O)Nc1cccc(-c2nc(SC)nc3sc(C(=O)NC(C)(C)C)c(N)c23)c1)C(C)C [Example 5]

>  <unitDescriptor>
nM

>  <quantitativeReadout>
9.63

$$$$
>  <compound>
COCCN(CCOC)CC(=O)Nc1cccc(-c2nc(-c3ccncc3)nc3sc(C(=O)NC(C)(C)C)c(N)c23)c1 [Example 26]

>  <unitDescriptor>
nM

>  <quantitativeReadout>
38.2

$$$$
>  <compound>
COC(=O)CNCC(=O)Nc1cccc(-c2nc(-c3ccco3)nc3sc(C(=O)NC(C)(C)C)c(N)c23)c1 [Example 13]

>  <unitDescriptor>
nM

>  <quantitativeReadout>
12.1

$$$$
>  <compound>
COC(=O)CNCC(=O)Nc1cccc(-c2nc(SC)nc3sc(C(=O)NC(C)(C)C)c(N)c23)c1 [Example 3]

>  <unitDescriptor>
nM

>  <quantitativeReadout>
5.97

$$$$
>  <compound>
COC(=O)CNCC(=O)Nc1cccc(-c2nc(-c3ccccc3)nc3sc(C(=O)NC(C)(C)C)c(N)c23)c1 [Example 10]

>  <unitDescriptor>
nM

>  <quantitativeReadout>
10.1

$$$$
>  <compound>
CCN(CCOC)CC(=O)Nc1cccc(-c2nc(SC)nc3sc(C(=O)NC(C)(C)C)c(N)c23)c1 [Example 4]

>  <unitDescriptor>
nM

>  <quantitativeReadout>
7

$$$$
>  <compound>
CCN(CCOC)CC(=O)Nc1cccc(-c2nc(NC(C)C)nc3sc(C(=O)NC(C)(C)C)c(N)c23)c1 [Example 20]

>  <unitDescriptor>
nM

>  <quantitativeReadout>
42.4

$$$$

###

- systemName: human LH receptor (Homo sapiens)
- Construct: cotransfected with CRE-luciferase reporter
- measurementProtocol: CHO-LH in vitro bioactivity (CRE-luciferase reporter)
- conditionDescription: CHO cells stably transfected with human LH receptor
- Procedure: It has been shown that compounds of the above mentioned formula I show agonistic LH and FSH activity. […] Typically the FSH activity ranges from an activity of about 0.1% of the LH agonist stimulation to about 10% of the LH agonist stimulation. LH agonistic activity of compounds were tested in Chinese Hamster Ovary (CHO) cells stably transfected with the human LH receptor and cotransfected with a cAMP responsive element (CRE)/promotor directing the expression of a firefly luciferase reporter gene. […]
Below: a set of entries, each annotated with reported EC50.
endpointName: EC50 (nM)

>  <compound>
COCCN(CCOC)CC(=O)Nc1cccc(-c2nc(-c3cccs3)nc3sc(C(=O)NC(C)(C)C)c(N)c23)c1

>  <endpointName>
EC50

>  <quantitativeReadout>
21.3

$$$$
>  <compound>
CSc1nc(-c2cccc(NC(=O)CNCC(O)CO)c2)c2c(N)c(C(=O)NC(C)(C)C)sc2n1 (stereo not drawn)

>  <endpointName>
EC50

>  <quantitativeReadout>
12.2

$$$$
>  <compound>
CN(CCO)CC(=O)Nc1cccc(-c2nc(-c3ccco3)nc3sc(C(=O)NC(C)(C)C)c(N)c23)c1

>  <endpointName>
EC50

>  <quantitativeReadout>
4

$$$$
>  <compound>
CN(CCO)CC(=O)Nc1cccc(-c2nc(-c3cccs3)nc3sc(C(=O)NC(C)(C)C)c(N)c23)c1

>  <endpointName>
EC50

>  <quantitativeReadout>
5.28

$$$$
>  <compound>
C=CCOc1nc(-c2cccc(NC(=O)CN(CC)CCOC)c2)c2c(N)c(C(=O)NC(C)(C)C)sc2n1

>  <endpointName>
EC50

>  <quantitativeReadout>
36.8

$$$$
>  <compound>
CCNc1nc(-c2cccc(NC(=O)CN(CC)CCOC)c2)c2c(N)c(C(=O)NC(C)(C)C)sc2n1

>  <endpointName>
EC50

>  <quantitativeReadout>
10.4

$$$$
>  <compound>
CCN(CCO)CC(=O)Nc1cccc(-c2nc(-c3ccccc3)nc3sc(C(=O)NC(C)(C)C)c(N)c23)c1

>  <endpointName>
EC50

>  <quantitativeReadout>
4.82

$$$$
>  <compound>
COC(=O)CNCC(=O)Nc1cccc(-c2nc(-c3cccs3)nc3sc(C(=O)NC(C)(C)C)c(N)c23)c1

>  <endpointName>
EC50

>  <quantitativeReadout>
18.2

$$$$
>  <compound>
CCN(CCOC)CC(=O)Nc1cccc(-c2nc(OC)nc3sc(C(=O)NC(C)(C)C)c(N)c23)c1

>  <endpointName>
EC50

>  <quantitativeReadout>
11.6

$$$$
>  <compound>
CCN(CCOC)CC(=O)Nc1cccc(-c2nc(OC(C)C)nc3sc(C(=O)NC(C)(C)C)c(N)c23)c1

>  <endpointName>
EC50

>  <quantitativeReadout>
78.2

$$$$
>  <compound>
CCNc1nc(-c2cccc(NC(=O)CNCC(=O)OC)c2)c2c(N)c(C(=O)NC(C)(C)C)sc2n1

>  <endpointName>
EC50

>  <quantitativeReadout>
22.9

$$$$
>  <compound>
CN(CCO)CC(=O)Nc1cccc(-c2nc(N(C)C)nc3sc(C(=O)NC(C)(C)C)c(N)c23)c1

>  <endpointName>
EC50

>  <quantitativeReadout>
14.5

$$$$
>  <compound>
C=CCNc1nc(-c2cccc(NC(=O)CNCC(=O)OC)c2)c2c(N)c(C(=O)NC(C)(C)C)sc2n1

>  <endpointName>
EC50

>  <quantitativeReadout>
57

$$$$
>  <compound>
CC(C)(C)NC(=O)c1sc2nc(-c3ccncc3)nc(-c3cccc(NC(=O)CNC(C)(C)CO)c3)c2c1N

>  <endpointName>
EC50

>  <quantitativeReadout>
34.7

$$$$
>  <compound>
CSc1nc(-c2cccc(NC(=O)CN(C)CCO)c2)c2c(N)c(C(=O)NC(C)(C)C)sc2n1

>  <endpointName>
EC50

>  <quantitativeReadout>
2.73

$$$$

Cited source for all entries: patent US7375109B2
